# assay.target: UniProtKB P22309
# assay.explanation: Glucuronidation kinetics by HeLa1A1 cell lysate
# cond: human, HeLa1A1 cell lysate (HeLa cells expressing UGT1A1), pH 7.4
measure.name: microsomal CLint (µL/min/mg)

| smiles.repr | measure.name | quantitative.result |
| --- | --- | --- |
| O=C(/C=C/c1ccc(O)cc1)CC(=O)/C=C/c1ccc(O)cc1 | microsomal CLint | 164 |

* * *

# assay.target: HeLa1A1 cell lysate (Homo sapiens)
# Sequence (P22309 26-533): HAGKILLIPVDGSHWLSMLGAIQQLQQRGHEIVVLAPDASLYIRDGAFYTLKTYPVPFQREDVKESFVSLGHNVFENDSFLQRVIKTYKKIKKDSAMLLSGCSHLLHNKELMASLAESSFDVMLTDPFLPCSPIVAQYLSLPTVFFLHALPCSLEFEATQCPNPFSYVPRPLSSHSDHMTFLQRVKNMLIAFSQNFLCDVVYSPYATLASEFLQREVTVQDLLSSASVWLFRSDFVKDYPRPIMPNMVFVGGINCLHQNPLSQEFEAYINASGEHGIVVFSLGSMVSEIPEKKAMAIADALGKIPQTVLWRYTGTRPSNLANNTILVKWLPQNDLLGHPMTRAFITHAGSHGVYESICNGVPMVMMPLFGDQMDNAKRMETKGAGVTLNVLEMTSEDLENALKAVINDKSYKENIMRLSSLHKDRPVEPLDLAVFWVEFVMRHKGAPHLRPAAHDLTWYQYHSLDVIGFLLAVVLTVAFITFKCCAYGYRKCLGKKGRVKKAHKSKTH
# assay.explanation: Glucuronidation kinetics by HeLa1A1 cell lysate
# cond: HeLa1A1 cell lysate supplemented with UDPGA

| molecule | Km / µM |
| --- | --- |
| C[C@]12CC[C@@H]3c4ccc(O)cc4CC[C@H]3[C@@H]1CC[C@@H]2O [β-estradiol] | 27.1 |
